# Experimental Setup: in isopropanol, 318.15 K
Value Kind: solubility (mole fraction)
Please respond with just the number, no unit label.

Please look at this compound and report its solubility (mole fraction): CCCCS(=O)(=O)N[C@@H](Cc1ccc(OCCCCC2CCNCC2)cc1)C(=O)O
0.000265

====

# Experimental Setup: in ethylene glycol, 298.15 K
Value Kind: solubility (mole fraction)
Please respond with just the number, no unit label.

Please look at this compound and report its solubility (mole fraction): CCCCS(=O)(=O)N[C@@H](Cc1ccc(OCCCCC2CCNCC2)cc1)C(=O)O
9.46e-05

====

# Experimental Setup: in ethylene glycol, 313.15 K
Value Kind: solubility (mole fraction)
Please respond with just the number, no unit label.

Please look at this compound and report its solubility (mole fraction): CCCCS(=O)(=O)N[C@@H](Cc1ccc(OCCCCC2CCNCC2)cc1)C(=O)O
0.000142

====

# Experimental Setup: in isopropanol, 323.15 K
Value Kind: solubility (mole fraction)
Please respond with just the number, no unit label.

Please look at this compound and report its solubility (mole fraction): CCCCS(=O)(=O)N[C@@H](Cc1ccc(OCCCCC2CCNCC2)cc1)C(=O)O
0.000301

====

# Experimental Setup: in ethanol, 318.15 K
Value Kind: solubility (mole fraction)
Please respond with just the number, no unit label.

Please look at this compound and report its solubility (mole fraction): CCCCS(=O)(=O)N[C@@H](Cc1ccc(OCCCCC2CCNCC2)cc1)C(=O)O
0.000427

====

# Experimental Setup: in water, 293.15 K
Value Kind: solubility (mole fraction)
Please respond with just the number, no unit label.

Please look at this molecule and report its solubility (mole fraction): CCCCS(=O)(=O)N[C@@H](Cc1ccc(OCCCCC2CCNCC2)cc1)C(=O)O
1.55e-06

====

# Experimental Setup: in methanol, 313.15 K
Value Kind: solubility (mole fraction)

Please look at this compound and report its solubility (mole fraction): CCCCS(=O)(=O)N[C@@H](Cc1ccc(OCCCCC2CCNCC2)cc1)C(=O)O
0.000957

====

# Experimental Setup: in ethylene glycol, 283.15 K
Value Kind: solubility (mole fraction)
Please respond with just the number, no unit label.

Please look at this compound and report its solubility (mole fraction): CCCCS(=O)(=O)N[C@@H](Cc1ccc(OCCCCC2CCNCC2)cc1)C(=O)O
5.7e-05

====

# Experimental Setup: in ethylene glycol, 288.15 K
Value Kind: solubility (mole fraction)
Please respond with just the number, no unit label.

Please look at this molecule and report its solubility (mole fraction): CCCCS(=O)(=O)N[C@@H](Cc1ccc(OCCCCC2CCNCC2)cc1)C(=O)O
6.77e-05

====

# Experimental Setup: in water, 323.15 K
Value Kind: solubility (mole fraction)

Please look at this compound and report its solubility (mole fraction): CCCCS(=O)(=O)N[C@@H](Cc1ccc(OCCCCC2CCNCC2)cc1)C(=O)O
3.59e-06

====

# Experimental Setup: in water, 283.15 K
Value Kind: solubility (mole fraction)
Please respond with just the number, no unit label.

Please look at this molecule and report its solubility (mole fraction): CCCCS(=O)(=O)N[C@@H](Cc1ccc(OCCCCC2CCNCC2)cc1)C(=O)O
1.1e-06

====

# Experimental Setup: in water, 298.15 K
Value Kind: solubility (mole fraction)

Please look at this molecule and report its solubility (mole fraction): CCCCS(=O)(=O)N[C@@H](Cc1ccc(OCCCCC2CCNCC2)cc1)C(=O)O
1.83e-06

====

# Experimental Setup: in methanol, 288.15 K
Value Kind: solubility (mole fraction)
Please respond with just the number, no unit label.

Please look at this compound and report its solubility (mole fraction): CCCCS(=O)(=O)N[C@@H](Cc1ccc(OCCCCC2CCNCC2)cc1)C(=O)O
0.000443

====

# Experimental Setup: in methanol, 308.15 K
Value Kind: solubility (mole fraction)

Please look at this compound and report its solubility (mole fraction): CCCCS(=O)(=O)N[C@@H](Cc1ccc(OCCCCC2CCNCC2)cc1)C(=O)O
0.000836

====

# Experimental Setup: in methanol, 303.15 K
Value Kind: solubility (mole fraction)
Please respond with just the number, no unit label.

Please look at this compound and report its solubility (mole fraction): CCCCS(=O)(=O)N[C@@H](Cc1ccc(OCCCCC2CCNCC2)cc1)C(=O)O
0.00071

====

# Experimental Setup: in isopropanol, 308.15 K
Value Kind: solubility (mole fraction)
Please respond with just the number, no unit label.

Please look at this molecule and report its solubility (mole fraction): CCCCS(=O)(=O)N[C@@H](Cc1ccc(OCCCCC2CCNCC2)cc1)C(=O)O
0.0002

====

# Experimental Setup: in ethanol, 288.15 K
Value Kind: solubility (mole fraction)
Please respond with just the number, no unit label.

Please look at this molecule and report its solubility (mole fraction): CCCCS(=O)(=O)N[C@@H](Cc1ccc(OCCCCC2CCNCC2)cc1)C(=O)O
0.000183

====

# Experimental Setup: in methanol, 323.15 K
Value Kind: solubility (mole fraction)
Please respond with just the number, no unit label.

Please look at this compound and report its solubility (mole fraction): CCCCS(=O)(=O)N[C@@H](Cc1ccc(OCCCCC2CCNCC2)cc1)C(=O)O
0.00125

====

# Experimental Setup: in methanol, 318.15 K
Value Kind: solubility (mole fraction)
Please respond with just the number, no unit label.

Please look at this compound and report its solubility (mole fraction): CCCCS(=O)(=O)N[C@@H](Cc1ccc(OCCCCC2CCNCC2)cc1)C(=O)O
0.0011

====

# Experimental Setup: in methanol, 278.15 K
Value Kind: solubility (mole fraction)

Please look at this compound and report its solubility (mole fraction): CCCCS(=O)(=O)N[C@@H](Cc1ccc(OCCCCC2CCNCC2)cc1)C(=O)O
0.000306

====

# Experimental Setup: in ethylene glycol, 293.15 K
Value Kind: solubility (mole fraction)

Please look at this compound and report its solubility (mole fraction): CCCCS(=O)(=O)N[C@@H](Cc1ccc(OCCCCC2CCNCC2)cc1)C(=O)O
8.02e-05

====

# Experimental Setup: in water, 318.15 K
Value Kind: solubility (mole fraction)
Please respond with just the number, no unit label.

Please look at this molecule and report its solubility (mole fraction): CCCCS(=O)(=O)N[C@@H](Cc1ccc(OCCCCC2CCNCC2)cc1)C(=O)O
3.14e-06

====

# Experimental Setup: in ethylene glycol, 323.15 K
Value Kind: solubility (mole fraction)
Please respond with just the number, no unit label.

Please look at this compound and report its solubility (mole fraction): CCCCS(=O)(=O)N[C@@H](Cc1ccc(OCCCCC2CCNCC2)cc1)C(=O)O
0.000181

====

# Experimental Setup: in ethylene glycol, 308.15 K
Value Kind: solubility (mole fraction)
Please respond with just the number, no unit label.

Please look at this compound and report its solubility (mole fraction): CCCCS(=O)(=O)N[C@@H](Cc1ccc(OCCCCC2CCNCC2)cc1)C(=O)O
0.000125

====

# Experimental Setup: in methanol, 293.15 K
Value Kind: solubility (mole fraction)
Please respond with just the number, no unit label.

Please look at this compound and report its solubility (mole fraction): CCCCS(=O)(=O)N[C@@H](Cc1ccc(OCCCCC2CCNCC2)cc1)C(=O)O
0.00052

====

# Experimental Setup: in water, 288.15 K
Value Kind: solubility (mole fraction)

Please look at this molecule and report its solubility (mole fraction): CCCCS(=O)(=O)N[C@@H](Cc1ccc(OCCCCC2CCNCC2)cc1)C(=O)O
1.32e-06

====

# Experimental Setup: in isopropanol, 283.15 K
Value Kind: solubility (mole fraction)
Please respond with just the number, no unit label.

Please look at this molecule and report its solubility (mole fraction): CCCCS(=O)(=O)N[C@@H](Cc1ccc(OCCCCC2CCNCC2)cc1)C(=O)O
9.32e-05

====

# Experimental Setup: in water, 278.15 K
Value Kind: solubility (mole fraction)
Please respond with just the number, no unit label.

Please look at this compound and report its solubility (mole fraction): CCCCS(=O)(=O)N[C@@H](Cc1ccc(OCCCCC2CCNCC2)cc1)C(=O)O
9.32e-07

====

# Experimental Setup: in methanol, 283.15 K
Value Kind: solubility (mole fraction)
Please respond with just the number, no unit label.

Please look at this compound and report its solubility (mole fraction): CCCCS(=O)(=O)N[C@@H](Cc1ccc(OCCCCC2CCNCC2)cc1)C(=O)O
0.000375

====

# Experimental Setup: in isopropanol, 288.15 K
Value Kind: solubility (mole fraction)
Please respond with just the number, no unit label.

Please look at this compound and report its solubility (mole fraction): CCCCS(=O)(=O)N[C@@H](Cc1ccc(OCCCCC2CCNCC2)cc1)C(=O)O
0.000108

====

# Experimental Setup: in ethanol, 308.15 K
Value Kind: solubility (mole fraction)
Please respond with just the number, no unit label.

Please look at this compound and report its solubility (mole fraction): CCCCS(=O)(=O)N[C@@H](Cc1ccc(OCCCCC2CCNCC2)cc1)C(=O)O
0.000329

====

# Experimental Setup: in ethanol, 278.15 K
Value Kind: solubility (mole fraction)

Please look at this compound and report its solubility (mole fraction): CCCCS(=O)(=O)N[C@@H](Cc1ccc(OCCCCC2CCNCC2)cc1)C(=O)O
0.000129
